# Assay System: p110δ/p85α (Homo sapiens (Human), UniProt O00329)
# Sequence (O00329 whole entry): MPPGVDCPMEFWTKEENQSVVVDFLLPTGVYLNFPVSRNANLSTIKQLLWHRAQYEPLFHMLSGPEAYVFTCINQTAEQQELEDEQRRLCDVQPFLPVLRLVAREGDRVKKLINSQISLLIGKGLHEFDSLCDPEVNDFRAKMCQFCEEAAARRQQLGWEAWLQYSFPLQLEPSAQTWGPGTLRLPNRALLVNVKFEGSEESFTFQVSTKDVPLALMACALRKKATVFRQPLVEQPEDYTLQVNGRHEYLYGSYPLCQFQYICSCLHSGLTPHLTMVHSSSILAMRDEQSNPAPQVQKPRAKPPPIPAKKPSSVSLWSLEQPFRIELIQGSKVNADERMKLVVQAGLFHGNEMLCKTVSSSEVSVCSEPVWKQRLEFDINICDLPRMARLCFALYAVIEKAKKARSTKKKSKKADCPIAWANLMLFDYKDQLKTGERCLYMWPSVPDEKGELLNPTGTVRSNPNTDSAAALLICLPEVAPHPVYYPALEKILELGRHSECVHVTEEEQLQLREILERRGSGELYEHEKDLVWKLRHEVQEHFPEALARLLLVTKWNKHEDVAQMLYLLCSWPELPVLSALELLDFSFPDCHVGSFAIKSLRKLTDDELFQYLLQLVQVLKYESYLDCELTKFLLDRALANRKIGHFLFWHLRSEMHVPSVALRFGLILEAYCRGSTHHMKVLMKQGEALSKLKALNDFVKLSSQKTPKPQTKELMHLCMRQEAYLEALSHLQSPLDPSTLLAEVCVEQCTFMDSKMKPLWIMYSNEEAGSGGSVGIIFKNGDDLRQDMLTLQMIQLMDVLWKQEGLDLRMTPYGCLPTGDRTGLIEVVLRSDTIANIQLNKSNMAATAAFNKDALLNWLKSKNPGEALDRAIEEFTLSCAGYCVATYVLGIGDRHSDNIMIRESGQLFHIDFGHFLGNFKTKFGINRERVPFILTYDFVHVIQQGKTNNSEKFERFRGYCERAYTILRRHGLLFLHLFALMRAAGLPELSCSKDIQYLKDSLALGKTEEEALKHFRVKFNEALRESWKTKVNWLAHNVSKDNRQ
# Sequence (P27986 whole entry partner): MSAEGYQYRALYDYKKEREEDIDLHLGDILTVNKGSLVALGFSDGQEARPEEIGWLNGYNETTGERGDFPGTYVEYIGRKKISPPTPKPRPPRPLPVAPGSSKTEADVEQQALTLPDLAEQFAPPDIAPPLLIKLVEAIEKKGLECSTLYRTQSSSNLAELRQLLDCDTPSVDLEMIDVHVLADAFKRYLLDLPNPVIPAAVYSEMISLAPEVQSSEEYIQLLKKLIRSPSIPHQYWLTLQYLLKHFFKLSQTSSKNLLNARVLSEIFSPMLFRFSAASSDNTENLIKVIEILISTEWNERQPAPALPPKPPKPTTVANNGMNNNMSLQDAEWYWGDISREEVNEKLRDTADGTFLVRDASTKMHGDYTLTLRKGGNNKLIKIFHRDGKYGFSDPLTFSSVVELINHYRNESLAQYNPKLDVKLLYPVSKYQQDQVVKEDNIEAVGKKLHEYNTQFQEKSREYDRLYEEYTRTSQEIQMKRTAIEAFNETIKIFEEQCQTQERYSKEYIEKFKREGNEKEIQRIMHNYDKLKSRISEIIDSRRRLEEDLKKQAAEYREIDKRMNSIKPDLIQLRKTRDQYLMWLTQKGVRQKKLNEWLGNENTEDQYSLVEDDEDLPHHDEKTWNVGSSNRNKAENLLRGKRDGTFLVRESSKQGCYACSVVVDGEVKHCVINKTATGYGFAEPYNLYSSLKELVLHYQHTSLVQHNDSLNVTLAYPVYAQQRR
# Method Summary: PI3K δ inhibition assay (TLC lipid kinase or HTRF)
Overview of recorded IC50 for various compounds

COc1ccccc1-c1nc2ccccc2cc1Cn1nc(-c2cccc(O)c2)c2c(N)ncnc21: 100 to 1000 nM
CC(=O)Nc1nc2ccc(-c3nn(Cc4cc5ccccc5nc4-c4ccccc4F)c4ncnc(N)c34)cc2s1: < 100 nM
Nc1nc2ccc(-c3nn(Cc4cc5ccccc5nc4CCN4CCCC4)c4ncnc(N)c34)cc2s1: < 100 nM
Nc1ncnc2c1c(/C=C1/CCNC1=O)nn2Cc1cc2ccccc2nc1-c1ccccc1F: > 1000 nM
CN(C)c1ncccc1Cn1nc(-c2cccc(O)c2)c2c(N)ncnc21: > 1000 nM

According to the records, this compound `Nc1nc2cc(-c3nn(Cc4cc5ccccc5nc4N4CCOCC4)c4ncnc(N)c34)ccc2o1` displays IC50 of < 100 nM

Recorded result, CC(Nc1ncnc2[nH]cnc12)c1cc2ccccc2nc1N1CCN(C)CC1 (centres unmarked) , IC50: < 100 nM

For this compound ( `NC(=O)c1cccc(-c2nn(Cc3cc4ccccc4nc3N3CCCC3)c3ncnc(N)c23)c1` ), measured IC50 is > 1000 nM

====

# Assay System: p110δ/p85α (Homo sapiens (Human), UniProt O00329)
# Method Summary: PI3K δ inhibition assay (TLC lipid kinase or HTRF)
Recorded Endpoint: IC50

Documented IC50 of CC(=O)Nc1nc2ccc(-c3nn(Cc4cc5ccccc5nc4OC(C)C)c4ncnc(N)c34)cc2s1 [Compound 157] : 100 to 1000 nM

Please fill in: IC50 reported for COc1ccccc1-c1nc2ccccc2cc1Cn1nc(-c2cc(O)cc(F)c2)c2c(N)ncnc21 [Compound 15] = < 100 nM

The reported value for Nc1ncnc2c1c(I)nn2Cc1cc2c(nc1-c1ccccc1F)CCC2 [Compound 100] in terms of IC50 is > 1000 nM

Sample CC(=O)Nc1nc2ccc(-c3nn(Cc4cc5ccccc5nc4-n4cnc(C)c4)c4ncnc(N)c34)cc2s1 [Compound 171] ; IC50 observed: < 100 nM

====

# Assay System: p110α/p85α (Homo sapiens (Human), UniProt P42336)
# Sequence (P42336 whole entry, one chain of several): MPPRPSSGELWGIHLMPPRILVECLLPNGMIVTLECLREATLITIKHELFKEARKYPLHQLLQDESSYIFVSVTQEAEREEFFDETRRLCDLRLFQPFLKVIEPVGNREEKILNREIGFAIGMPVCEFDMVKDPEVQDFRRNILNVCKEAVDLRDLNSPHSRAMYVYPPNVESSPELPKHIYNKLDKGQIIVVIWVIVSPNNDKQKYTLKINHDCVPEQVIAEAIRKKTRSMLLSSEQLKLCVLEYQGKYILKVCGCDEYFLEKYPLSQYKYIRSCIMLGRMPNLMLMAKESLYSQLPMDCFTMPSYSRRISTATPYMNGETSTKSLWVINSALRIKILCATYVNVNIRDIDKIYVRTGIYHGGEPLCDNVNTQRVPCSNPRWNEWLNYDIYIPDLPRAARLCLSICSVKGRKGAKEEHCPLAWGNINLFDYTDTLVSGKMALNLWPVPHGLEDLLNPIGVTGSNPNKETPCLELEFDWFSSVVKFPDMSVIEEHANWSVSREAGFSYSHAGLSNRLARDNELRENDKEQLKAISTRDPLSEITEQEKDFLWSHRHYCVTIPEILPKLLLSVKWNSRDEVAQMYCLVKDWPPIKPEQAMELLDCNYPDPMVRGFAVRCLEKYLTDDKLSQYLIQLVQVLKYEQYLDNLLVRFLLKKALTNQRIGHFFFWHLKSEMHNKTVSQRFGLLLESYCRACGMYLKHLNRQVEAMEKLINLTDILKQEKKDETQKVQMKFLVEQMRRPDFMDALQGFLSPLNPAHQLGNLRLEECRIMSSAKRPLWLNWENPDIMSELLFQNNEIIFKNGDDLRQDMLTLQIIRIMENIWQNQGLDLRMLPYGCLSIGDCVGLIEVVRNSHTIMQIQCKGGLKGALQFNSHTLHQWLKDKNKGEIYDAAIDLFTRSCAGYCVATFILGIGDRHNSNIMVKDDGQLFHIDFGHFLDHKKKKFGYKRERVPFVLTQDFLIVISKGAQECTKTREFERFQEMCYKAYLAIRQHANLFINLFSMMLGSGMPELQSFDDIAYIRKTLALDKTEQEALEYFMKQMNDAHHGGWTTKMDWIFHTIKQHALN
# Method Summary: PI3K α inhibition assay (TLC lipid kinase or HTRF)
pIC50: −log10 of the molar value.
# reported pIC50; entries follow

CC(c1cc2ccccc2nc1N1CCN(C)CC1)n1cnc2c(N)ncnc21 (centres unmarked): < 6.00
Nc1nc2cc(-c3nn(Cc4cc5ccccc5nc4N4CCOCC4)c4ncnc(N)c34)ccc2o1: 6.00 to 7.00

Shift focus to the following entry.
The reported value for `CCc1nc2ccccc2cc1Cn1nc(-c2ccc3nc(N)sc3c2)c2c(N)ncnc21` in terms of pIC50 is 6.00 to 7.00

====

Readings of pIC50 for the listed molecules
# Assay System: p110δ/p85α (Homo sapiens (Human), UniProt O00329)
# Method Summary: PI3K δ inhibition assay (TLC lipid kinase or HTRF)
pIC50: −log10 of the molar value.

A selection of reference data follows.
CC(=O)Nc1nc2ccc(-c3nn(Cc4cc5ccccc5nc4-c4ccccc4C)c4ncnc(N)c34)cc2s1 [Compound 84]: > 7.00
Nc1nc2cc(-c3nn(Cc4cc5ccccc5nc4-c4ccccc4F)c4ncnc(N)c34)ccc2[nH]1 [Compound 152]: > 7.00
NCc1ccc(F)cc1-c1nc2ccccc2cc1Cn1nc(-c2cc(O)cc(F)c2)c2c(N)ncnc21 [Compound 26]: > 7.00
CC(c1cc2ccccc2nc1N1CCN(C)CC1)n1cnc2c(N)ncnc21 (centres unmarked) [Compound 89]: 6.00 to 7.00
Cc1ccccc1-c1nc2ccccc2n1CCn1nc(-c2cc(O)cc(F)c2)c2c(N)ncnc21 [Compound 127]: > 7.00
CC(C)N1CCN(c2nc3ccccc3cc2Cn2nc(-c3cc(O)cc(F)c3)c3c(N)ncnc32)CC1 [Compound 69]: > 7.00

Documented pIC50 of CCn1c(=O)c(Cn2nc(-c3cc(O)cc(F)c3)c3c(N)ncnc32)nc2ccccc21 [Compound 117] : > 7.00

Sure, the documented pIC50 for C[C@@H](O)C#Cc1nn(Cc2nc3ccccc3nc2N2CCCC2)c2ncnc(N)c12 [Compound 106] is 6.00 to 7.00
